All values here come from the METLIN SMRT retention time set (Domingo-Almenara et al. 2019).

assay: gradient 5% acetonitrile 3 min, to 50% in 2 min, to 85% in 15 min, held 3 min, 100 µL/min; settings: column: Zorbax Extend-C18 2.1 x 50 mm; eluents: water / acetonitrile, 0.1% formic acid
Measurement name: RP-LC retention time (s)
Use s as the unit, but write only the number.

# input compound: CSc1nc2ccc3nc(NC(=O)C4=COCCO4)sc3c2s1 ; wanted: its RP-LC retention time
905

For COc1cc(OC)cc(-c2nnc(Cc3nc(-c4ccc(F)cc4)no3)o2)c1 then?
1040

Record: CN1C(=O)COc2ccc(-c3csc(NC(=O)c4ccc(Cl)cc4)n3)cc21
1010

Also check COc1ccc(-c2noc(-c3nnn4c3COC(c3ccc(F)cc3)C4)n2)c(OC)c1 (configuration not stated)
836

###

experiment: gradient 5% acetonitrile 3 min, to 50% in 2 min, to 85% in 15 min, held 3 min, 100 µL/min; settings: column: Zorbax Extend-C18 2.1 x 50 mm; eluents: water / acetonitrile, 0.1% formic acid
Flag rule - RP-LC retention time less than 700 s flags 1; the remaining entries get 0.

[
  {
    "Molecule": "CCOC(=O)c1[nH]c(C)c(CCC(=O)N2CCC(C(=O)NC(C)c3ccccc3)CC2)c1C (stereo not given)",
    "Class": 0
  },
  {
    "Molecule": "CCSc1nnc(-c2nn(C)c3c2CN(S(=O)(=O)c2ccc(OC)cc2)CC3)n1CC",
    "Class": 0
  },
  {
    "Molecule": "CCN1c2ccc(C)cc2C(=O)NC12CCN(C(=O)c1cccc(F)c1)CC2",
    "Class": 0
  },
  {
    "Molecule": "CCCOC(=O)C1=C(C)NC2=C(C(=O)C(C(=O)OC)C(C)C2)C1c1ccc(F)cc1 (stereo not given)",
    "Class": 0
  },
  {
    "Molecule": "CCCNC(=O)c1ccc(-c2ccc3c(c2)CCN3C(=O)CC)cc1",
    "Class": 0
  },
  {
    "Molecule": "CNC(=O)CC1CCOC2(CCN(C(=O)C3CC3)CC2)C1 (stereo not given)",
    "Class": 1
  },
  {
    "Molecule": "COc1ccc(NC2=NS(=O)(=O)C(c3ccccc3)=C2C)cc1OC",
    "Class": 0
  },
  {
    "Molecule": "Cc1ccc(-c2nc(-c3ccc(-c4noc(CNC(=O)c5ccccc5)n4)cc3)cs2)s1",
    "Class": 0
  },
  {
    "Molecule": "COc1ccc2c(c1)CCc1sc(NC(=O)c3ccc(Cl)cc3)nc1-2",
    "Class": 0
  },
  {
    "Molecule": "CC(C)N1CCCC(Cn2cc(COc3ccc4c(c3)CCC4)nn2)C1 (stereo not given)",
    "Class": 1
  }
]

I'd appreciate it if you could check whether Cc1cc2c(c(=O)n(-c3ccc(F)cc3)c(=O)n2CC(=O)Nc2ccccc2C(F)(F)F)n1C has RP-LC retention time smaller than 700 s.
0

Also check O=C1NC2(CCN(C(=O)Nc3ccc4c(c3)OCCO4)CC2)Oc2ccccc21
0

Now consider COc1cc(CNC(=O)C2CCCN(c3cc(=O)n(C)c(=O)n3C)C2)cc(OC)c1OC (stereo not given) and answer again.
1

###

experiment: gradient 5% acetonitrile 3 min, to 50% in 2 min, to 85% in 15 min, held 3 min, 100 µL/min; details: column: Zorbax Extend-C18 2.1 x 50 mm; eluents: water / acetonitrile, 0.1% formic acid
Entries whose RP-LC retention time is below 800 s take rule met; entries at or above 800 s take rule not met.

[
  {
    "Compound": "O=C(Cc1csc2nc(-c3ccccc3)cn12)N1CCN(c2ccccc2F)CC1",
    "Class": "rule not met"
  },
  {
    "Compound": "Cc1noc(C2CCCCN2Cc2cc(=O)n3ccccc3n2)n1 (stereo not drawn)",
    "Class": "rule met"
  }
]

# check: RP-LC retention time < 800 s for COc1ccc2c(c1)C1(CCN(S(=O)(=O)c3cccc(C#N)c3)C1)C(=O)N2C (stereo not drawn)
rule not met

O=C(Nc1ccccc1)c1cnc(-c2ccc(F)cc2)nc1-c1ccncc1 , same question.
rule not met

Same read-out for Cc1ccc(-c2nc3cnccn3c2NCCC(=O)NCC(C)C)cc1 ?
rule met

Moving on to the next compound: CCOc1ccc(N(C)C(=O)Cn2cccc2-c2nnc(C3CC3)o2)cc1
rule not met
